# Test system: castrated male Sprague Dawley rats
# ASSAY DETAILS: Ventral Prostate and Seminal Vesicle Weight In Vivo Assay; note: key: active: the non weight adjusted prostate weight was ≦40 mg or the % Inhibition prostate weight, body weight adjusted was ≧40%@2 mg/day dosage; inactive: did not meet the specified criteria defined above
# DETAILS: inhibition of testosterone-enhanced prostate weight; immature castrated rats, once daily for five days, usually orally 40 mg/kg, with testosterone propionate 2 mg/kg s.c.

>  <STRUCTURE>
O=C(Cn1c(CC(F)(F)F)nc2cc(Cl)c(Cl)cc21)c1ccc([N+](=O)[O-])cc1

>  <Activity>
active

$$$$
>  <STRUCTURE>
COc1cccc(C(=O)Cn2c(CC(F)(F)F)nc3cc(Cl)c(Cl)cc32)c1

>  <Activity>
inactive

$$$$
>  <STRUCTURE>
Fc1ccccc1Cn1c(CC(F)(F)F)nc2cc(Cl)c(Cl)cc21

>  <Activity>
active

$$$$
>  <STRUCTURE>
Cc1oncc1Cn1c(CC(F)(F)F)nc2cc(Cl)c(Cl)cc21

>  <Activity>
active

$$$$
>  <STRUCTURE>
FC(F)(F)Cc1nc2cc(Cl)c(Cl)cc2n1COc1ccc(Cl)cc1

>  <Activity>
inactive

$$$$
>  <STRUCTURE>
Fc1cccc(Cn2c(CC(F)(F)F)nc3cc(Cl)c(Cl)cc32)c1

>  <Activity>
active

$$$$
>  <STRUCTURE>
FC(F)(F)Cc1nc2cc(Cl)c(C(F)(F)F)cc2[nH]1

>  <Activity>
active

$$$$
>  <STRUCTURE>
Cn1c(CC(F)(F)F)nc2cc(Cl)c(Cl)cc21

>  <Activity>
active

$$$$
>  <STRUCTURE>
CSCn1c(CC(F)(F)F)nc2cc(Cl)c(Cl)cc21

>  <Activity>
active

$$$$

Ref: patent US7566733B2
